meta.source: ChEMBL document CHEMBL4346693

methodNotes: Cmax in Sprague-Dawley rat at 10 mg/kg, po by LC-MS/MS analysis
Assay type: ADME, organism-based
Design: dose 10 mg/kg, route oral
details: in vivo
property: Cmax (ng/mL)
Please respond with the number in ng/mL and leave the unit unwritten.

Exam item: What value of Cmax has been reported for the following compound? COc1ccc(N(CC(F)(F)F)S(=O)(=O)[C@H]2C[C@H]3O[C@@H]2C(c2ccc(OCCN4CCCC4)cc2)=C3c2ccc(O)cc2)cc1 (relative stereo)
Marked response: 50

---

Listed here: items and their measured IC50.
System: MCF7
methodNotes: cells
details: Homo sapiens, MCF7, 72 h
Description: Antiproliferative activity against human MCF7 cells incubated for 72 hrs by MTT assay
Please respond with the number in µM and leave the unit unwritten.

molecule: COc1ccc(N(CC(F)(F)F)S(=O)(=O)[C@H]2C[C@H]3O[C@@H]2C(c2ccc(OCCCCCCCCCCC(=O)O)cc2)=C3c2ccc(O)cc2)cc1 (relative stereo)
unitOfMeasure: µM
IC50: 14.3

Exam item: What value of IC50 has been reported for the following molecule? CN(c1ccccc1)S(=O)(=O)[C@H]1C[C@H]2O[C@@H]1C(c1ccc(OCCN3CCCCC3)cc1)=C2c1ccc(O)cc1 (relative stereo)
Marked response: 15.2

Exam item: What value of IC50 has been reported for the following molecule? CCN(c1ccc(OCCCCCCCCCCC(=O)O)cc1)S(=O)(=O)[C@H]1C[C@H]2O[C@@H]1C(c1ccc(O)cc1)=C2c1ccc(O)cc1 (relative stereo)
Marked response: 18.4

---

methodNotes: Half life in Sprague-Dawley rat at 10 mg/kg, po by LC-MS/MS analysis
Format: ADME, organism-based
details: in vivo
property: half-life (h)
Please respond with the number in h and leave the unit unwritten.

Exam item: What value of half-life has been reported for the following compound? COc1ccc(N(CC(F)(F)F)S(=O)(=O)[C@H]2C[C@H]3O[C@@H]2C(c2ccc(OCCN4CCCC4)cc2)=C3c2ccc(O)cc2)cc1 (relative stereo)
Marked response: 3.7

---

methodNotes: AUC in Sprague-Dawley rat at 10 mg/kg, po by LC-MS/MS analysis
Type: ADME, organism-based
details: in vivo
property: AUC (ng·h/mL)
Please respond with the number in ng·h/mL and leave the unit unwritten.

Exam item: What value of AUC has been reported for the following compound? COc1ccc(N(CC(F)(F)F)S(=O)(=O)[C@H]2C[C@H]3O[C@@H]2C(c2ccc(OCCN4CCCC4)cc2)=C3c2ccc(O)cc2)cc1 (relative stereo)
Marked response: 330

---

methodNotes: Half life in Sprague-Dawley rat at 3 mg/kg, iv by LC-MS/MS analysis
Assay type: ADME, organism-based
details: in vivo
property: half-life (h)
Please respond with the number in h and leave the unit unwritten.

Exam item: What value of half-life has been reported for the following compound? COc1ccc(N(CC(F)(F)F)S(=O)(=O)[C@H]2C[C@H]3O[C@@H]2C(c2ccc(OCCN4CCCC4)cc2)=C3c2ccc(O)cc2)cc1 (relative stereo)
Marked response: 6.2

---

methodNotes: Clearance in Sprague-Dawley rat at 3 mg/kg, iv by LC-MS/MS analysis
Format: ADME, organism-based
details: in vivo
property: clearance (mL/min/kg)
Please respond with the number in mL/min/kg and leave the unit unwritten.

Exam item: What value of clearance has been reported for the following compound? COc1ccc(N(CC(F)(F)F)S(=O)(=O)[C@H]2C[C@H]3O[C@@H]2C(c2ccc(OCCN4CCCC4)cc2)=C3c2ccc(O)cc2)cc1 (relative stereo)
Marked response: 46
